system_name: human recombinant CyPA (Homo sapiens, UniProt P62937)
Sequence (P62937 whole entry): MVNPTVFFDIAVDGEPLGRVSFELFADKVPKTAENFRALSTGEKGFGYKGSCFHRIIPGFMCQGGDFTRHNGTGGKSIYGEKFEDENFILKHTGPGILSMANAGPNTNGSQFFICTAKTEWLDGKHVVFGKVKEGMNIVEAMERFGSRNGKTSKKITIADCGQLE
assay_summary: Semiautomated microtiter plate assay of rotamase activity inhibition
Assay type: biochemical
condition_description: 30 minute preincubation at 4° C., read-out: IC50 (rotamase inhibition, modified plate reader assay)
Protocol: Semiautomated Assay of Rotamase Activity Inhibition: Rotamase inhibition was determined using a semiautomated microtiter plate assay modification of the above described assay [see Küillertz et al., Clin. Chem. 44, 502-508 (1998)]. All dilutions of CyPA, peptide substrate, and chymotrypsin were made in 35 mM ice-cold HEPES buffer. […] IC50 values which were obtained for representative compounds using this modified plate reader assay of rotamase inhibition are given in the following Table II: […]
reported_endpoint: IC50 (nM)

>>> experimental_value("O=C(CCCCc1ccccc1)Nc1cccc(C(=O)NNC(=S)Nc2ccc(Cl)c(Cl)c2)c1")
713
>>> experimental_value("O=C(CCCCc1ccccc1)Nc1cccc(S(=O)(=O)NNC(=S)Nc2ccc(Cl)c(Cl)c2)c1")
372
>>> experimental_value("O=C(NNS(=O)(=O)c1ccc(Cl)c(Cl)c1)c1cccc(NC(=O)c2cccc(OCc3ccccc3)c2)c1")
2710
>>> experimental_value("O=C(CCCCc1ccccc1)Nc1cccc(NC(=O)CC(=O)Nc2ccc(Cl)c(Cl)c2)c1")
6090
>>> experimental_value("O=C(CCCCc1ccccc1)Nc1cccc(-c2nnc(Nc3ccc(Cl)c(Cl)c3)s2)c1 [Compound 40A]")
2800
>>> experimental_value("O=S(=O)(c1cc(Cl)cc(Cl)c1)N(c1cccc(N(S(=O)(=O)c2ccc3ccccc3c2)S(=O)(=O)c2ccc3ccccc3c2)c1)S(=O)(=O)c1cc(Cl)cc(Cl)c1")
309
>>> experimental_value("O=C(CCCCc1ccccc1)Nc1cccc(C(=O)NNC(=S)NC23CC4CC(CC(C4)C2)C3)c1")
5190

----------
system_name: human recombinant CyPA (Homo sapiens, UniProt P62937)
assay_summary: Rotamase inhibition, chymotrypsin-coupled cuvette assay (asterisked values)
Type: biochemical
condition_description: human recombinant CyPA; values with asterisk; read-out: IC50 (rotamase activity)
pIC50: −log10 of the molar value.
Listed below: pIC50 values for each entry.
reported_endpoint: pIC50

>>> experimental_value("O=C(CCCCc1ccccc1)Nc1cccc(C(=O)NNC(=S)Nc2ccc(Cl)c(Cl)c2)c1 [Compound 33]")
7.07
>>> experimental_value("O=S(=O)(Oc1cccc(NC(=S)Nc2cc(Cl)cc(Cl)c2)c1)c1c(F)c(F)c(F)c(F)c1F [Compound 22]")
6.13
>>> experimental_value("S=C(Nc1cc(Cl)cc(Cl)c1)Nc1cccc(C=NN(c2ccccc2)c2ccccc2)c1 [Compound 21]")
6.29
>>> experimental_value("O=C(NNS(=O)(=O)c1ccc(Cl)c(Cl)c1)c1cccc(NC(=O)c2cccc(OCc3ccccc3)c2)c1 [Compound 31]")
6.01
>>> experimental_value("O=C(NNC(=O)c1cccc(NC(=O)c2cccc(OCc3ccccc3)c2)c1)c1cc(Cl)cc(Cl)c1 [Compound 30]")
6.33

----------
system_name: human recombinant CyPA (Homo sapiens, UniProt P62937)
assay_summary: Rotamase inhibition, chymotrypsin-coupled cuvette assay (asterisked values)
Assay type: biochemical
reported_endpoint: IC50 (nM)

>>> experimental_value("O=C(Nc1cc(Cl)cc(Cl)c1)N[C@H]1CCCC[C@H]1NC(=O)Nc1cc(Cl)cc(Cl)c1 [Compound 15a]")
521
>>> experimental_value("O=C(Nc1cccc(N(S(=O)(=O)c2ccc3ccccc3c2)S(=O)(=O)c2ccc3ccccc3c2)c1)c1cc(Cl)cc(Cl)c1 [Compound 8]")
804

----------
system_name: recombinant rat CyPA-GST fusion protein (Rattus norvegicus)
Construct: made in house; host or cells: E. coli BL21
assay_summary: Rotamase (prolyl peptidyl cis-trans isomerase) inhibition, chymotrypsin-coupled cuvette assay
Format: biochemical
reported_endpoint: IC50 (nM)

>>> experimental_value("Cc1ccc(S(=O)(=O)N(c2cccc(NC(=O)Nc3cc(Cl)cc(Cl)c3)c2)S(=O)(=O)c2ccc(C)cc2)cc1 [Compound 2]")
149
>>> experimental_value("O=C(Nc1cccc(N(S(=O)(=O)c2cc(Cl)cc(Cl)c2)S(=O)(=O)c2cc(Cl)cc(Cl)c2)c1)c1cc(Cl)cc(Cl)c1 [Compound 8a]")
364
>>> experimental_value("O=C(Nc1cccc(N(S(=O)(=O)c2ccc3ccccc3c2)S(=O)(=O)c2ccc3ccccc3c2)c1)c1cc(Cl)cc(Cl)c1 [Compound 8]")
701
>>> experimental_value("O=C(Nc1cc(Cl)cc(Cl)c1)[C@@H]1CC[C@H](NC(=S)Nc2cc(Cl)cc(Cl)c2)C1 [Compound 17]")
854
>>> experimental_value("O=C(Nc1ccccc1NC(=O)c1ccc(I)cc1)c1ccc(I)cc1 [Compound 29]")
940
>>> experimental_value("O=C(Nc1cc(Cl)cc(Cl)c1)N[C@H]1CCCC[C@H]1NC(=O)Nc1cc(Cl)cc(Cl)c1 [Compound 15a]")
610
>>> experimental_value("O=C(Nc1cccc(N(S(=O)(=O)c2cc(Cl)cc(Cl)c2)S(=O)(=O)c2cc(Cl)cc(Cl)c2)c1)Nc1c(Cl)cccc1Cl [Compound 6]")
990

----------
system_name: human recombinant CyPA (Homo sapiens, UniProt P62937)
assay_summary: Semiautomated microtiter plate assay of rotamase activity inhibition
Format: biochemical
condition_description: 30 minute preincubation at 4° C., read-out: IC50 (rotamase inhibition, modified plate reader assay)
Procedure: Semiautomated Assay of Rotamase Activity Inhibition: Rotamase inhibition was determined using a semiautomated microtiter plate assay modification of the above described assay [see Küillertz et al., Clin. Chem. 44, 502-508 (1998)]. All dilutions of CyPA, peptide substrate, and chymotrypsin were made in 35 mM ice-cold HEPES buffer. […] IC50 values which were obtained for representative compounds using this modified plate reader assay of rotamase inhibition are given in the following Table II: […]
Listed below: log10 IC50 values for each entry.
reported_endpoint: log10 IC50 (log10 of the value in µM)

>>> experimental_value("O=C(NNC(=O)c1cccc(NC(=O)c2cccc(OCc3ccccc3)c2)c1)c1cc(Cl)cc(Cl)c1")
0.58
>>> experimental_value("O=C(CCCCCCc1ccccc1)Nc1cccc(C(=O)NNC(=S)Nc2ccc(Cl)c(Cl)c2)c1")
-0.27
>>> experimental_value("O=C(CCCCCc1cccc(C(F)(F)F)c1)Nc1cccc(S(=O)(=O)NC(=S)Nc2ccc(Cl)c(Cl)c2)c1")
-0.89
>>> experimental_value("O=C(CCCCc1ccccc1)Nc1ccc(C(=O)NNC(=S)Nc2ccc(Cl)c(Cl)c2)cc1")
0.20
>>> experimental_value("O=C(CCCCc1ccccc1)Nc1cccc(S(=O)(=O)NC(=S)Nc2ccc(Cl)c(Cl)c2)c1 [Compound 34A]")
0.67
>>> experimental_value("O=C(CCCCc1ccccc1)Nc1cccc(-c2nnc(Nc3ccc(Cl)c(Cl)c3)o2)c1 [Compound 40B]")
-0.05
>>> experimental_value("O=C(CCCCc1ccccc1)Nc1cccc(/C=N/NC(=S)Nc2ccc(Cl)c(Cl)c2)c1")
0.15

----------
system_name: recombinant rat CyPA-GST fusion protein (Rattus norvegicus)
Construct: made in house; host or cells: E. coli BL21
assay_summary: Rotamase (prolyl peptidyl cis-trans isomerase) inhibition, chymotrypsin-coupled cuvette assay
Format: biochemical
Listed below: IC50 values for each entry.
reported_endpoint: IC50 (nM)

>>> experimental_value("COc1ccc(S(=O)(=O)N(c2cccc(NC(=O)c3cc(Cl)cc(Cl)c3)c2)S(=O)(=O)c2ccc(C)cc2)cc1")
955
>>> experimental_value("O=C(Nc1cc(Cl)cc(Cl)c1)Nc1cccc(N(S(=O)(=O)c2cc(Cl)cc(Cl)c2)S(=O)(=O)c2cc(Cl)cc(Cl)c2)c1")
1220
>>> experimental_value("O=C(Nc1cccc(Oc2ccccc2)c1)Nc1cc(C(F)(F)F)cc(C(F)(F)F)c1")
1560
>>> experimental_value("O=C(Nc1cc(Cl)cc(Cl)c1)Nc1ccccc1NC(=O)Nc1cc(Cl)cc(Cl)c1")
667

----------
system_name: recombinant rat CyPA-GST fusion protein (Rattus norvegicus, UniProt P10111)
Construct: made in house; host or cells: E. coli BL21
Sequence (P10111 2-164): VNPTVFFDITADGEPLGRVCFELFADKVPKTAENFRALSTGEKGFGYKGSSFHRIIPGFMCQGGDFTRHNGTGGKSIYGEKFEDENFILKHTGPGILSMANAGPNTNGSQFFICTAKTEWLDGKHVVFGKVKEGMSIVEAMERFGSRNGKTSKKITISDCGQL
assay_summary: Rotamase (prolyl peptidyl cis-trans isomerase) inhibition, chymotrypsin-coupled cuvette assay
Type: biochemical
condition_description: recombinant rat CyPA-GST fusion protein; values without asterisk; read-out: IC50 (rotamase activity)
pIC50: −log10 of the molar value.
reported_endpoint: pIC50

>>> experimental_value("O=C(Nc1cc(Cl)cc(Cl)c1)[C@@H]1C=C[C@H](NC(=S)Nc2cc(Cl)cc(Cl)c2)C1")
6.05
>>> experimental_value("O=C(Nc1cccc(OS(=O)(=O)c2c(F)c(F)c(F)c(F)c2F)c1)c1cc(Cl)cc(Cl)c1")
6.02
>>> experimental_value("COc1ccc(S(=O)(=O)N(c2cccc(N(S(=O)(=O)c3cc(Cl)cc(Cl)c3)S(=O)(=O)c3cc(Cl)cc(Cl)c3)c2)S(=O)(=O)c2ccc(OC)cc2)cc1")
6.14
>>> experimental_value("S=C(Nc1ccc(I)cc1)NC1CCCCC1NC(=S)Nc1ccc(I)cc1 (stereo not drawn)")
6.17
>>> experimental_value("O=C(NNC(=S)Nc1cc(Cl)cc(Cl)c1)c1cccc(OCc2cc(C(F)(F)F)cc(C(F)(F)F)c2)c1")
6.05
>>> experimental_value("O=C(Nc1cc(Cl)cc(Cl)c1)N[C@H]1CC[C@@H](NC(=O)Nc2cc(Cl)cc(Cl)c2)CC1")
5.82
>>> experimental_value("O=C(COc1cccc(NC(=O)c2cc(Cl)cc(Cl)c2)c1)Nc1cc(Cl)cc(Cl)c1")
6.04
>>> experimental_value("S=C(Nc1cc(Cl)cc(Cl)c1)Nc1ccccc1NC(=S)Nc1cc(Cl)cc(Cl)c1")
5.96
>>> experimental_value("S=C(Nc1cc(Cl)cc(Cl)c1)Nc1cccc(C=C(c2ccc(Cl)cc2)c2ccc(Cl)cc2)c1")
6.73
>>> experimental_value("COc1ccc(S(=O)(=O)N(c2cccc(N(S(=O)(=O)c3cc(Cl)cc(Cl)c3)S(=O)(=O)c3cc(Cl)cc(Cl)c3)c2)S(=O)(=O)c2ccc(C)cc2)cc1")
6.00
>>> experimental_value("S=C(Nc1ccc(Cl)c(Cl)c1)NC1CCCCC1NC(=S)Nc1ccc(Cl)c(Cl)c1 (stereo not drawn)")
6.10
>>> experimental_value("FC(F)(F)c1cc(NC(=S)NC2CCCCC2NC(=S)Nc2cc(C(F)(F)F)cc(C(F)(F)F)c2)cc(C(F)(F)F)c1 (stereo not drawn)")
6.12
>>> experimental_value("S=C(Nc1cc(Cl)cc(Cl)c1)NC1CCCCC1NC(=S)Nc1cc(Cl)cc(Cl)c1 (stereo not drawn)")
6.21
>>> experimental_value("O=C(Nc1cc(Cl)cc(Cl)c1)[C@H]1CC[C@@H](NC(=S)Nc2cc(Cl)cc(Cl)c2)C1")
6.12
>>> experimental_value("COc1ccc(S(=O)(=O)N(c2cccc(NC(=O)Nc3cc(Cl)cc(Cl)c3)c2)S(=O)(=O)c2ccc(C)cc2)cc1")
6.79
